- experimental system: T1, Human IL-33-his (human, UniProt O95760 112-270, biotinylated with EZ-Link NHS-Biotin where used as IL-33-his-biotin)
- T1 construct: Used plain (SPR, cell assays) and biotinylated (ELISA); also called IL-33-his-biotin
- T1 sequence: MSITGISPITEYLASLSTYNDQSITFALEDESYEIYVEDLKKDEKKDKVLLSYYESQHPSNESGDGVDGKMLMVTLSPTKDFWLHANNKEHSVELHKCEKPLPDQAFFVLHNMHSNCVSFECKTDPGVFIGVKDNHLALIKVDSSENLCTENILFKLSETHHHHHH
- test summary: SPR Biacore 8K, antibody captured on Protein A/G chip, IL-33-his as analyte, 1:1 model
pKd: −log10 of the molar value.
observed property: pKd

>>> test_result("864F3-Hu4 (antibody, human IgG4 S228P, kappa, V domains shown, Humanized; also called humanized antibody 864F3-Hu4) VH: QVQLQESGPGLVKPSETLSLTCTVSGFSLSKYGVHWIRQPPGKGLEWIGVLRAGGTISYNSALMSRVTISEDISKSQVSLKLSSVTAADTAVYYCARDHYYYSSFGGFASWGQGTLVTVSS VL: DIQMTQSPSSLSASVGDRVTITCLASQTIATWLAWYQQKPGKSPKLLIYAATRLADGVPSRFSGSGSGTDFTLTISSLQPEDFATYYCQQLYNTPYTFGQGTKVEIKR")
8.86
>>> test_result("871G1-Hu1 (antibody, human IgG4 S228P, kappa, V domains shown, Humanized; also called humanized antibody 871G1-Hu1) VH: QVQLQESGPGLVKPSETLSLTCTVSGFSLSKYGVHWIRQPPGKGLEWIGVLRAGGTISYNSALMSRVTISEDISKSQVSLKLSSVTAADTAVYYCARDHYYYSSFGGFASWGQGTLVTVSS VL: DIQMTQSPSSVSASVGDRVTITCLASQTIGAWLAWYQQKPGKSPKLLIYAATRLADGVPSRFSGSGSGTDFTLTISSLQPEDFATYYCQQLNSTPYTFGQGTKVEIKR")
8.77
